System: BT-549 breast
protocol: NCI-60 one-dose screen, 48 h
stated conditions: 10 µM unless noted
About 83,000 compounds went through this panel and 20% of them were active in at least one assay; those are over-represented in the sample as a whole. Calls of active or inactive are those of the source. How the source made its calls: active means growth percent below 10; inactive means the rest.
Outcome codes: active, inactive

compound	label
COc1ccc(-c2c3c(nn2-c2ccc(N)cc2)CCc2cnoc2-3)cc1OC	inactive
COC(=O)CCC1=C(CC(=O)OC)C(C)=N/C1=C\c1[nH]c(-c2ccc[nH]2)cc1OC	inactive
CCCCN(CCCC)CCCOC(=O)c1ccc(N)cc1	inactive
CCCCCCCCCCCCCCCCCc1nccn1CCO	inactive
CCN(CC)CCCNCCCNc1cc(OC)cc2cccnc12	inactive
COC(=O)[C@]12CC[C@@H](C)[C@H](C)[C@@H]1C1=CC[C@@H]3[C@@]4(C)C=C(O)C(=O)[C@@]5(C)COC(=C54)C[C@@]3(C)[C@]1(C)CC2	active
Cc1cc2c(C#N)n3c(c2cc1C)C(=O)C(c1ccccc1)Oc1ccccc1-3 (stereo not drawn)	inactive
O=C(CCc1nnc(Cn2cncn2)o1)c1nc2ccccc2[nH]1	inactive

* * *

System: DU-145 prostate
protocol: NCI-60 one-dose screen, 48 h (100 = growth as untreated, 0 = no growth, -100 = all killed)
stated conditions: 10 µM unless noted
The panel holds about 83,000 compounds, 20% with a hit somewhere; the sample as a whole holds those more often.
Assign true whenever growth does not fall below 90%; assign false whenever it does.

molecule	label
COc1cc(-c2cc(C(=O)Nc3nc4ccccc4s3)nc3cc(-c4ccccc4)nn23)cc(OC)c1OC	false
CCOc1ccccc1C(=O)OCC(=O)Nc1cccc(S(=O)(=O)N(C)C)c1	true
Cc1cc(NC(=O)c2ccc(N)cc2)ccc1N=Nc1ccc2c(O)c(N=Nc3ccc(Cl)c(S(=O)(=O)O)c3)c(S(=O)(=O)O)cc2c1	true
O=NC1CC=CCC1c1ccccc1 (stereo not drawn)	true
COc1ccc(CCN2CCCN3C2=Nc2ccccc2S3(=O)=O)cc1	false
O=C(Nc1ccc(Oc2ccc(NC(=O)Nc3ccc([N+](=O)[O-])cc3)cc2)cc1)Nc1ccc([N+](=O)[O-])cc1	false
COc1cc(C2CC(c3ccc(C)cc3)=NN2C(C)=O)ccc1Oc1ccnc2cc(Cl)ccc12 (stereo not drawn)	false

* * *

Test system: SW-620 colon
protocol: NCI-60 one-dose screen, 48 h
stated conditions: 10 µM unless noted
The panel holds about 83,000 compounds, 20% with a hit somewhere; the sample as a whole holds those more often. Active and inactive are the calls of the source. How the source made its calls: active means growth percent below 10; inactive means the rest.
Outcome codes: active, inactive

compound smiles	label
CCC(=O)Nc1ccccc1C#C/C=C\C#Cc1ccccc1C(F)(F)F	inactive
c1coc([C@@H]2C[C@@H]3Cc4ccc5ccccc5c4N2O3)c1	inactive
O=C(Nc1cccc(-n2cc(-c3ccncc3)c(-c3ccc(O)c(Cl)c3)n2)c1)Nc1ccc(Cl)c(C(F)(F)F)c1	active
CCSc1nnc2n(Cc3ccccc3)c(=O)c3c(C)c(C(N)=O)sc3n12	inactive
CCN(CC)CCCNCCCNc1cc(OC)cc2cccnc12	inactive
Cn1cc(-c2csc(-c3cn(C)c4ncccc34)n2)c2cc(Br)cnc21	inactive
CC(C)[C@H]1CC[C@H]2[C@@H](CC[C@H]3[C@](C)(CN)CCC[C@]23C)C1	active
CC(=O)n1c2ccccc2c2ccccc21	inactive
CN=C(NC)N/N=C(C)\C=N\NC(=NC)NC	inactive
Cc1ccc2c(c1)C(=O)/C(=C/c1ncc([N+](=O)[O-])n1C)O2	active
O=C(c1nn(-c2ccc(Cl)cc2)cc1O)n1nc(C(F)(F)F)cc1-c1ccccc1	inactive
COc1cc2c(cc1OCCCCCn1c(-c3ccc(OCc4ccccc4)cc3)nc3cc(N4CCOCC4)ccc31)N=C[C@@H]1CCCN1C2=O	active
CCOC(=O)c1cc(-c2cccnc2)nc2c(Cl)cc(Cl)cc12	inactive

* * *

Items are presented alongside their recorded growth.
Test system: SF-268 CNS
protocol: NCI-60 one-dose screen, 48 h (100 = growth as untreated, 0 = no growth, -100 = all killed)
stated conditions: 10 µM unless noted
This is part of a sample that, as a whole, favours compounds with a hit. Of some 83,000 tested, about 20% had one in any assay.
measured attribute: growth (%)

compound	measured attribute	recorded result
CCOC(=O)c1c2c(c(C)n1Cc1ccccc1)-c1nc(N)ncc1CC2	growth	104
COC(=O)CC1=C(C)/C(=C/c2[nH]c(-c3ccc[nH]3)cc2OC)N=C1C	growth	22.7
COc1ccc2nc3cc(Cl)ccc3c(Nc3cc(C(C)C)c(O)cc3C)c2c1	growth	64
CCC(c1ccccc1)c1noc(CCN(CC)CC)n1 (stereo not given)	growth	103
CN1C(=O)C(=Cc2cn(Cc3ccccc3)c3ccc(Br)cc23)C(=O)N(C)C1=O	growth	96.7
O=C(Nc1ccc(Oc2ccc(NC(=O)Nc3ccc([N+](=O)[O-])cc3)cc2)cc1)Nc1ccc([N+](=O)[O-])cc1	growth	19.7
c1ccc(-c2nnc(Nc3nnc(-c4ccccc4)s3)s2)cc1	growth	103
c1ccc2cc(C[n+]3ccn(CCCCCCCn4cc[n+](Cc5ccc6ccccc6c5)c4)c3)ccc2c1	growth	34.4
O=C1Cc2cc(CCn3cncn3)c(Cl)cc2N1	growth	110
Cc1cc(NCCCNc2ccnc3cc(Cl)ccc23)nc(N2CCN(C)CC2)n1	growth	70.7

* * *

Items are presented alongside their recorded growth.
Tested on: HOP-62 NSCLC
protocol: NCI-60 one-dose screen, 48 h (100 = growth as untreated, 0 = no growth, -100 = all killed)
stated conditions: 10 µM unless noted
Compounds without any hit were thinned out: in the full panel of roughly 83,000, 20% have a hit.

compound	measured on	units	growth
N#Cc1cccc(/C=C(/C(=O)c2ccccc2)c2ccccc2)c1	HOP-62 NSCLC	%	94.5
Oc1[nH]c2ccccc2c1/C=c1/ccc2c(c1)N=C(c1cc(F)cc(F)c1)N=2	HOP-62 NSCLC	%	101
O=C(/C(=N/O)S(=O)(=O)c1ccccc1)c1cccs1	HOP-62 NSCLC	%	94.4
C=C(C[C@@](O)(C(=O)Oc1ccccc1)C(=O)C1CCCCC1)c1ccccc1	HOP-62 NSCLC	%	108
CCC(C)CC(CC)NCCN1CCN(C(CC)CC(C)CC)C1=S (stereo unspecified)	HOP-62 NSCLC	%	29.1
CCN(CC)CCNc1ccc(Cl)cc1Cl	HOP-62 NSCLC	%	95.8
CC(=O)c1cc(C(=O)c2ccc3c(c2)Sc2ccccc2N3)c2c(C)cc(C)cn12	HOP-62 NSCLC	%	20.8
COc1ccc(-c2cc(Cc3cccs3)c(=O)n(Cn3ccc4ccccc43)n2)cc1	HOP-62 NSCLC	%	105
Cc1cc(C(=O)O)c(C)cc1C(=O)O	HOP-62 NSCLC	%	93.5
N#CCCN(CCO)c1ccccc1	HOP-62 NSCLC	%	95
O=C(COC(=O)[C@H](C[Se][Se]C[C@H](NC(=O)c1ccc(Br)cc1F)C(=O)OCC(=O)c1ccc(F)cc1)NC(=O)c1ccc(Br)cc1F)c1ccc(F)cc1	HOP-62 NSCLC	%	-6.31
COc1ccc2nc(NC(=O)c3cc(-c4ccc(F)cc4)n4nc(-c5ccccc5)cc4n3)sc2c1	HOP-62 NSCLC	%	61.4
Cc1cc2c(cc1[N+](=O)[O-])NC(CNC(C)C)CC2 (stereo unspecified)	HOP-62 NSCLC	%	103
O=C1CC(C(F)(F)F)=NN1C(=O)c1nn(-c2ccc(Cl)cc2)cc1O	HOP-62 NSCLC	%	70.2
COc1ccc2c3c(c(OCCCN(C)C)nc2c1)-c1ccc(Cl)cc1C3=O	HOP-62 NSCLC	%	10
COc1ccc(OC)c2c1[nH]c(=O)c1c3ccccc3cn21	HOP-62 NSCLC	%	-33.6
COc1cc2c(cc1OCCCOc1ccc(-c3cc4ccccc4c4ccccc34)cc1)N=C[C@@H]1CCCN1C2=O	HOP-62 NSCLC	%	-45
O=C1N(C2CCCCC2)C(=O)N1C1CCCCC1	HOP-62 NSCLC	%	57.5
COc1cc(C2CC(c3ccc(C)cc3)=NN2C(C)=O)ccc1Oc1ccnc2cc(Cl)ccc12 (stereo unspecified)	HOP-62 NSCLC	%	16.4
CCCCCCCCCCCCCCCCCc1nccn1CCO	HOP-62 NSCLC	%	68
CCCCCCC/C(=N\N=C(N)N)c1ccc(O)cc1	HOP-62 NSCLC	%	43.9
COc1ccc(-c2c(N)noc2-c2cc(OC)c3c(c2)OCCO3)cc1	HOP-62 NSCLC	%	23
CC(C)[O-].CC(C)[O-].CN(CCN(C)Cc1cc(F)cc(F)c1[O-])Cc1cc(F)cc(F)c1[O-].[Ti+4]	HOP-62 NSCLC	%	-5.62
Clc1cc(Cl)c(OCC#CI)cc1Cl	HOP-62 NSCLC	%	108
CSc1nc2c(c(=O)n1C)C(c1ccccc1)C1=C(N2)/C(=C/c2ccccc2)CCC1 (stereo unspecified)	HOP-62 NSCLC	%	94.3
CCOC(=O)c1ccccc1OC(=O)NNc1ccccc1	HOP-62 NSCLC	%	70.6
N#Cc1c(N2CCOCC2)nc2sc3cc(Cl)ccc3n2c1=N	HOP-62 NSCLC	%	90.2
C/C(=N/N=C(N)N)c1ccc(Cl)cc1	HOP-62 NSCLC	%	98.8
COC(=O)CC1=C(C)/C(=C/c2[nH]c(-c3ccc[nH]3)cc2OC)N=C1C	HOP-62 NSCLC	%	-10.9
COc1cc(C2NC(c3ccc(Cl)cc3)C(C)/C(=N/NC(N)=S)C2C)cc(OC)c1OC (stereo unspecified)	HOP-62 NSCLC	%	99
CCN(CC)CCOc1ccccc1-n1c(C)ccc1-c1ccccc1	HOP-62 NSCLC	%	106
